// provenance: patent US20220153746A1

# Tgt: human PDE-6C (Homo sapiens, UniProt P51160)
# Sequence (P51160 whole entry): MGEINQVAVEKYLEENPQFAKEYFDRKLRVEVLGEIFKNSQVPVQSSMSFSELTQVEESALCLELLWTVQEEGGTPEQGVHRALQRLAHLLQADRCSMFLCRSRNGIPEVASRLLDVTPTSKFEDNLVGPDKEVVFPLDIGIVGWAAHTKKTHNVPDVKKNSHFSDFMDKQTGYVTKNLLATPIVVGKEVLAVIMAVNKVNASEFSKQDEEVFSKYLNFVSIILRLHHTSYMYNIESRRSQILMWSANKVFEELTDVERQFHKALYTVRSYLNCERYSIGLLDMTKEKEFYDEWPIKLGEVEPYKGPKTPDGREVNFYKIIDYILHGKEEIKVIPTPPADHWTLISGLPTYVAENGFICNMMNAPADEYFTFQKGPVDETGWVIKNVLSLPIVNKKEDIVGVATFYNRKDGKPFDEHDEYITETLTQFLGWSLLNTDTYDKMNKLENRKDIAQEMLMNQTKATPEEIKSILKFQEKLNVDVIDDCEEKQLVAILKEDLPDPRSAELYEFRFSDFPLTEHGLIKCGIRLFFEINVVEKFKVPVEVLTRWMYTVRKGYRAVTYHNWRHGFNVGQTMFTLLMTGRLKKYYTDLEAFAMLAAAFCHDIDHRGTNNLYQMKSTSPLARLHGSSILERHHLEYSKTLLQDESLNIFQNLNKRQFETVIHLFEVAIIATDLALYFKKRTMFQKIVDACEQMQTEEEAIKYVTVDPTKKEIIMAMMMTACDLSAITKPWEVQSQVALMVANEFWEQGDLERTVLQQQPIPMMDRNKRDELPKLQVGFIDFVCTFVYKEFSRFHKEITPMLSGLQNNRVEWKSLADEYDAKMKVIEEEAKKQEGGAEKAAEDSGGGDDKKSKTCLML
# Experiment: Human PDE-6C inhibition assay (fluorescence polarization, FAM-cGMP)
# Assay type: biochemical
# Run parameters: read-out: IC50 (μM) PDE6C
Measured parameter: IC50

**Query** Give the reported value of IC50 for this record: `CCCc1nn(C)c2c(=O)[nH]c(-c3cc(S(=O)(=O)N4CC(OCCO[N+](=O)[O-])C4)ccc3OCC)nc12`
**Result** < 0.01 µM

**Query** Give reported IC50 value for `CCCc1nn(C)c2c(=O)[nH]c(-c3cc(S(=O)(=O)N4CC(CCCOC(=O)CCCCO[N+](=O)[O-])C4)ccc3OCC)nc12`
**Result** < 0.01 µM

**Query** Give the measured IC50 for `CCCc1nn(C)c2c(=O)[nH]c(-c3cc(S(=O)(=O)N4CC(CN)C4)ccc3OCC)nc12`
**Result** 0.01 to 0.1 µM

**Query** Tell me its IC50 given `CCCc1nn(C)c2c(=O)[nH]c(-c3cc(S(=O)(=O)N4CC(O)C4)ccc3OCC)nc12` as the entry.
**Result** 0.01 to 0.1 µM

**Query** Note IC50 for the compound shown: `CCCc1nn(C)c2c(=O)[nH]c(-c3cc(S(=O)(=O)N4CC(NCCOC(=O)CCCCO[N+](=O)[O-])C4)ccc3OCC)nc12`
**Result** < 0.01 µM

**Query** Query IC50 for `CCCc1nn(C)c2c(=O)[nH]c(-c3cc(S(=O)(=O)NC4CN(CCCO[N+](=O)[O-])C4)ccc3OCC)nc12`
**Result** < 0.01 µM

**Query** Give the measured IC50 for `CCCc1nn(C)c2c(=O)[nH]c(-c3cc(S(=O)(=O)N4CC(OCCCO)C4)ccc3OCC)nc12`
**Result** 0.01 to 0.1 µM

----------
Quick reference for Cmax among some molecules
# Experiment: PK Phase (Group 2): plasma concentrations and pharmacokinetics of Compound 18 and its metabolite Compound 4 after once daily ocular instillation of Compound 18 nanosuspension for 7 days
# Type: in vivo, New Zealand white rabbits
# Run parameters: male, New Zealand white, rabbit, plasma, topical or ocular, 0.8 mg/kg, plasma, Day 7, Compound 18 0.8 mg/kg ocular instillation; animal 207664
Report the figure in ng/mL without appending any unit label.

{"Test smiles": "CCCc1nn(C)c2c(=O)[nH]c(-c3cc(S(=O)(=O)N4CC(CCCO[N+](=O)[O-])C4)ccc3OCC)nc12", "Unit label": "ng/mL", "Number": 0.306}

**Query** Tell me its Cmax given `CCCc1nn(C)c2c(=O)[nH]c(-c3cc(S(=O)(=O)N4CC(CCCO)C4)ccc3OCC)nc12` as the entry.
**Result** 0.851

----------
# Experiment: TD Phase (Groups 1 and 3): plasma and ocular tissue concentrations and pharmacokinetics of Compound 18 and its metabolite Compound 4 after once daily ocular instillation of Compound 18 nanosuspension for 7 days
# Format: in vivo, New Zealand white rabbits
# Run parameters: male, New Zealand white, rabbit, plasma, other: ocular instillation, 0.8 mg/kg/day, TD Phase, Group 1, 1 h, individual animals; read-out: Compound 18 Plasma Conc.
Measured parameter: concentration at 1 h (ng/mL)
Just the number in ng/mL, nothing appended.

**Query** Annotate the compound CCCc1nn(C)c2c(=O)[nH]c(-c3cc(S(=O)(=O)N4CC(CCCO[N+](=O)[O-])C4)ccc3OCC)nc12 [Compound 18] with its measured concentration at 1 h.
**Result** 0.0641
